This collection of values is drawn from patent US20100048597A1.

Let's go through some recorded IC50 values for CDK4 (Homo sapiens) together.

Field: example entries. Status: answers known.
For CDK4 (Homo sapiens), give the measured IC50 of the entry CC(=O)NCCCNc1nccc(-c2ccnc(Nc3cccc(Cl)c3)n2)c1C [Compound 6]
5 to 15 µM

Fill: IC50 (CDK4 (Homo sapiens)) for this compound Clc1cccc(Nc2nccc(-c3cccnc3NCCc3c[nH]cn3)n2)c1 [Compound 79]
15 to 50 µM

Specify IC50 for NCCCOc1ncccc1-c1ccnc(Nc2cccc(Cl)c2)n1 [Compound 120] , system CDK4 (Homo sapiens).
15 to 50 µM

Output reported IC50 of the compound CCN(CC)S(=O)(=O)c1cccc(Nc2nccc(-c3cccnc3OC)n2)c1 [Compound 105] on CDK4 (Homo sapiens).
Sequence (P11802 whole entry, species assumed): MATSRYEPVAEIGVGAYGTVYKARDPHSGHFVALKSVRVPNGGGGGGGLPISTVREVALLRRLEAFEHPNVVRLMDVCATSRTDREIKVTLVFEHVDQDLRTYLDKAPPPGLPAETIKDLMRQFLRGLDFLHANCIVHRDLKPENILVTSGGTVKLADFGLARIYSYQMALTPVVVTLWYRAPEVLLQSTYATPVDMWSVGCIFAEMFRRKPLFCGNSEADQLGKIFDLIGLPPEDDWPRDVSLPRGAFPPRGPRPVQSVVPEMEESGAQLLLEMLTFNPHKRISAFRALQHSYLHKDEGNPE
Sequence (P24385 whole entry partner, species assumed): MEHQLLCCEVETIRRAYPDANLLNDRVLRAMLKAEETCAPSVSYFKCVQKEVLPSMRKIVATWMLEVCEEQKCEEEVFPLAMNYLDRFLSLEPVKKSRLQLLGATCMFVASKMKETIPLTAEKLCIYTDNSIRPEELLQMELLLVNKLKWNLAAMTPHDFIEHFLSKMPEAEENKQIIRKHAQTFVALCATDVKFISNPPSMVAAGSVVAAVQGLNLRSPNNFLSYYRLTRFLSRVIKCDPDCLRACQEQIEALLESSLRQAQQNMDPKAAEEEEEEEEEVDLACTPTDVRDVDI
15 to 50 µM

Report IC50 on CDK4 (Homo sapiens) for this entry: CNCCNc1nccc(-c2ccnc(Nc3cccc(Cl)c3)n2)c1C [Compound 3]
< 5 µM

Further cases:
Supply IC50 measured with CDK4 (Homo sapiens) for CC(=O)NCCCNc1nccc(-c2ccnc(Nc3cccc([N+](=O)[O-])c3)n2)c1C [Compound 25] .
5 to 15 µM

Report its IC50 with CDK4 (Homo sapiens) as the test system: CC(=O)NCCCNc1cc(-c2nc(Nc3cccc(Cl)c3)ncc2C)ccn1 [Compound 32]
15 to 50 µM

Lab note: CDK4 (Homo sapiens) assay, enter IC50 for CC(=O)NCCCNc1ncccc1-c1ccnc(Nc2cccc(S(C)(=O)=O)c2)n1 [Compound 67] here
15 to 50 µM

---

CDK5 (Homo sapiens, UniProt Q00535): reported pIC50 for various compounds.
Sequence (Q00535 whole entry, species assumed): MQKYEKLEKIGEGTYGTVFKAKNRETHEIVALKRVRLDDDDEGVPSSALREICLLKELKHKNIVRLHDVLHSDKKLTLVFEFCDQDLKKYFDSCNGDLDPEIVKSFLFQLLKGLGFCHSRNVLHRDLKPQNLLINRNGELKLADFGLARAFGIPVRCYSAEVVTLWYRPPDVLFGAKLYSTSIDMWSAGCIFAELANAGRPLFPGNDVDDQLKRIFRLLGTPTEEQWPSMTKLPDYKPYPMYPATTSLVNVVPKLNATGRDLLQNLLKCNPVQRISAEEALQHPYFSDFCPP
Sequence (Q15078 whole entry partner, species assumed): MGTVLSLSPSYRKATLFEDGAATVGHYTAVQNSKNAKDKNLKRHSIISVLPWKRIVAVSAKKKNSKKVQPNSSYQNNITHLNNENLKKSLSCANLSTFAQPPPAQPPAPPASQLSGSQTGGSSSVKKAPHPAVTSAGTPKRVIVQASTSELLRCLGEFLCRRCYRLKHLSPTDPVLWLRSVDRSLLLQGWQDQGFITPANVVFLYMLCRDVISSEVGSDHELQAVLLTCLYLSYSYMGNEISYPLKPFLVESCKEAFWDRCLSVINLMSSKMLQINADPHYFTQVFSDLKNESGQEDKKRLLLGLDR
pIC50: −log10 of the molar value.

Record excerpt, results attached:
Report pIC50 under test system CDK5 (Homo sapiens, UniProt Q00535) for `CCN(CC)S(=O)(=O)c1cccc(Nc2nccc(-c3cccnc3OC)n2)c1` .
4.82 to 5.30

Name the recorded pIC50 of `Cc1c(-c2ccnc(Nc3cccc(Cl)c3)n2)ccnc1NCCCn1ccnc1` , assay system CDK5 (Homo sapiens, UniProt Q00535).
> 5.30

Shift focus to the following entry.
State measured pIC50 of the compound `COc1ncccc1-c1ccnc(Nc2ccc(N3CCN(C)CC3)cc2)n1` with CDK5 (Homo sapiens, UniProt Q00535).
> 5.30

---

System: CDK5 (Homo sapiens, UniProt Q00535) | Read-out: pIC50
pIC50: −log10 of the molar value.

Report the value of pIC50 obtained on CDK5 (Homo sapiens, UniProt Q00535) for COc1ncccc1-c1ccnc(Nc2cccc(S(C)(=O)=O)c2)n1 [Compound 93] .
> 5.30

Print CDK5 (Homo sapiens, UniProt Q00535) pIC50 for NS(=O)(=O)c1cccc(Nc2nccc(-c3cccnc3NCCCn3ccnc3)n2)c1 [Compound 83] .
> 5.30

Give the observed pIC50 of Cc1c(-c2ccnc(Nc3cccc(Cl)c3)n2)ccnc1NCCCN1CCCC1=O [Compound 24] for CDK5 (Homo sapiens, UniProt Q00535).
4.82 to 5.30

Identify measured pIC50 obtained with CDK5 (Homo sapiens, UniProt Q00535) for COc1cnccc1-c1nc(Nc2cccc(S(N)(=O)=O)c2)ncc1C [Compound 47] .
> 5.30

With CDK5 (Homo sapiens, UniProt Q00535) as the test system, provide measured pIC50 for this molecule: CC(C)(CN)CNc1ncccc1-c1ccnc(Nc2cccc(Cl)c2)n1 [Compound 61]
4.30 to 4.82

***
Quote CDK5 (Homo sapiens, UniProt Q00535) pIC50 for entry CS(=O)(=O)c1cccc(Nc2nccc(-c3cccnc3NCCCN)n2)c1 [Compound 58] .
> 5.30
